protocol_summary: Tissue distribution after single oral SZ-A (40 mg/kg) in SD rats, plasma and 12 tissues
Type: in vivo
study_conditions: rat, Aortic blood vessels, n=5, read-out: Tmax
property: Tmax (min)

smiles_string	unit_symbol	Tmax
OC[C@H]1NC[C@@H](O)[C@@H]1O	min	4.8
OC[C@H]1NC[C@H](O)[C@@H](O)[C@@H]1O	min	4.8
OC[C@H]1NCC[C@@H](O)[C@@H]1O	min	4.8

###

protocol_summary: Tissue distribution after single oral SZ-A (40 mg/kg) in SD rats, plasma and 12 tissues
Format: in vivo
study_conditions: rat, Spleen, n=5, read-out: Tmax
property: Tmax (min)

smiles_string	Tmax (min)
OC[C@H]1NCC[C@@H](O)[C@@H]1O	30
OC[C@H]1NC[C@@H](O)[C@@H]1O	30
OC[C@H]1NC[C@H](O)[C@@H](O)[C@@H]1O	30

###

protocol_summary: Tissue distribution after single oral SZ-A (40 mg/kg) in SD rats, plasma and 12 tissues
Type: in vivo
study_conditions: rat, Subcutaneous adipose tissue, n=5, read-out: AUC(0-t)
property: AUC(0-t) (ng·h/mL)

P. OC[C@H]1NCC[C@@H](O)[C@@H]1O
Q. OC[C@H]1NC[C@H](O)[C@@H](O)[C@@H]1O
Lowest AUC(0-t)? choose P or Q To answer, give the label that identifies your chosen option.
P
(P: 212 ng·h/mL, Q: 1210 ng·h/mL)

###

protocol_summary: Tissue distribution after single oral SZ-A (40 mg/kg) in SD rats, plasma and 12 tissues
Format: in vivo
study_conditions: Sprague-Dawley, rat, Pancreas, n=5, read-out: AUC(0-t)
property: AUC(0-t) (ng·h/mL)

smiles_string	AUC(0-t) (ng·h/mL)
OC[C@H]1NC[C@@H](O)[C@@H]1O	854

I. OC[C@H]1NC[C@H](O)[C@@H](O)[C@@H]1O
II. OC[C@H]1NCC[C@@H](O)[C@@H]1O
Lowest AUC(0-t)? choose I or II To answer, give the label that identifies your chosen option.
II

###

protocol_summary: Tissue distribution after single oral SZ-A (40 mg/kg) in SD rats, plasma and 12 tissues
Type: in vivo
study_conditions: rat, other tissues (not named), tissues not named separately for that alkaloid, read-out: time of peak concentration in other tissues (converted)
property: Tmax (min)

smiles_string	Tmax [min]
OC[C@H]1NC[C@@H](O)[C@@H]1O	30
OC[C@H]1NCC[C@@H](O)[C@@H]1O	30
OC[C@H]1NC[C@H](O)[C@@H](O)[C@@H]1O	30

###

protocol_summary: Pharmacokinetic study: plasma levels after oral SZ-A in SD rats (LC-MS/MS, DAS 3.2.8)
Assay type: in vivo
study_conditions: both sexes, rat, plasma, oral SZ-A 50 mg/kg, n=8
property: AUC(0-inf) (ng·h/mL)

molecule	AUC(0-inf) (ng·h/mL)
OC[C@H]1NCC[C@@H](O)[C@@H]1O [FA, fagomine]	2370

1. OC[C@H]1NC[C@H](O)[C@@H](O)[C@@H]1O [DNJ, 1-deoxynojirimycin]
2. OC[C@H]1NC[C@@H](O)[C@@H]1O [DAB, 1,4-dideoxy-1,4-imino-D-arabinitol]
Of the two listed items, 1 and 2 , which carries the larger AUC(0-inf) figure? To answer, give the label that identifies your chosen option.
1

###

protocol_summary: Tissue distribution after single oral SZ-A (40 mg/kg) in SD rats, plasma and 12 tissues
Assay type: in vivo
study_conditions: Sprague-Dawley, rat, Plasma, n=5
property: half-life (min)

smiles_string	unit_symbol	half-life
OC[C@H]1NC[C@@H](O)[C@@H]1O	min	34.2

A. OC[C@H]1NC[C@H](O)[C@@H](O)[C@@H]1O
B. OC[C@H]1NCC[C@@H](O)[C@@H]1O
Lowest half-life? choose A or B To answer, give the label that identifies your chosen option.
A
(A: 31.2 min, B: 46.8 min)
